System: L6
assay method text: Cytotoxicity against rat L6 cells
Format: cell-based
pIC50: −log10 of the molar value.
Mark met for reported pIC50 of 4 or greater; mark not met for anything smaller.

- compound: "CC1CCc2ccccc2N1S(=O)(=O)c1ccc(F)cc1 (stereo unspecified)"
  category: "met"
- compound: "CC1CCc2ccccc2N1S(=O)(=O)c1cccc([N+](=O)[O-])c1 (stereo unspecified)"
  category: "not met"
- compound: "CC1CCc2ccccc2N1 (stereo unspecified)"
  category: "not met"
- compound: "CC1CCc2ccccc2N1S(=O)(=O)c1ccc(N)cc1 (stereo unspecified)"
  category: "met"
- compound: "Cc1ccc(S(=O)(=O)N2c3ccccc3CCC2C)cc1 (stereo unspecified)"
  category: "met"
- compound: "CC1CCc2ccccc2N1S(=O)(=O)c1ccc([N+](=O)[O-])cc1 (stereo unspecified)"
  category: "not met"
- compound: "CC1CCc2ccccc2N1S(=O)(=O)c1ccc(Cl)cc1 (stereo unspecified)"
  category: "met"
- compound: "CC1CCc2ccccc2N1S(=O)(=O)c1ccc(Br)cc1 (stereo unspecified)"
  category: "met"
- compound: "CC(=O)Nc1ccc(S(=O)(=O)N2c3ccccc3CCC2C)cc1 (stereo unspecified)"
  category: "met"
- compound: "CC1CCc2ccccc2N1S(=O)(=O)c1ccccc1 (stereo unspecified)"
  category: "met"
- compound: "COc1ccc(S(=O)(=O)N2c3ccccc3CCC2C)cc1 (stereo unspecified)"
  category: "met"

====

Let's look at some compounds and their measured IC50.
Tested on: Trypanosoma cruzi
assay method text: Antitrypanosomal activity against Trypanosoma cruzi infected in rat L6 cells
Format: functional, organism-based
quantity measured: IC50 (µM)

- compound: "CC1CCc2ccccc2N1S(=O)(=O)c1cccc([N+](=O)[O-])c1 (configuration not stated)"
  system tested: "Trypanosoma cruzi"
  quantity measured: "IC50"
  endpoint value: 31.9
- compound: "CC1CCc2ccccc2N1 (configuration not stated)"
  system tested: "Trypanosoma cruzi"
  quantity measured: "IC50"
  endpoint value: 189
- compound: "Cc1ccc(S(=O)(=O)N2c3ccccc3CCC2C)cc1 (configuration not stated)"
  system tested: "Trypanosoma cruzi"
  quantity measured: "IC50"
  endpoint value: 16.6
- compound: "CC(=O)Nc1ccc(S(=O)(=O)N2c3ccccc3CCC2C)cc1 (configuration not stated)"
  system tested: "Trypanosoma cruzi"
  quantity measured: "IC50"
  endpoint value: 21.4
- compound: "CC1CCc2ccccc2N1S(=O)(=O)c1ccc(F)cc1 (configuration not stated)"
  system tested: "Trypanosoma cruzi"
  quantity measured: "IC50"
  endpoint value: 224
- compound: "CC1CCc2ccccc2N1S(=O)(=O)c1ccc(N)cc1 (configuration not stated)"
  system tested: "Trypanosoma cruzi"
  quantity measured: "IC50"
  endpoint value: 19.7
- compound: "O=C(Cn1ccnc1[N+](=O)[O-])NCc1ccccc1 [BENZNIDAZOLE]"
  system tested: "Trypanosoma cruzi"
  quantity measured: "IC50"
  endpoint value: 1.54
- compound: "CC1CCc2ccccc2N1S(=O)(=O)c1ccc([N+](=O)[O-])cc1 (configuration not stated)"
  system tested: "Trypanosoma cruzi"
  quantity measured: "IC50"
  endpoint value: 11.4
- compound: "CC1CCc2ccccc2N1S(=O)(=O)c1ccc(Cl)cc1 (configuration not stated)"
  system tested: "Trypanosoma cruzi"
  quantity measured: "IC50"
  endpoint value: 16
- compound: "COc1ccc(S(=O)(=O)N2c3ccccc3CCC2C)cc1 (configuration not stated)"
  system tested: "Trypanosoma cruzi"
  quantity measured: "IC50"
  endpoint value: 15.9
- compound: "CC1CCc2ccccc2N1S(=O)(=O)c1ccccc1 (configuration not stated)"
  system tested: "Trypanosoma cruzi"
  quantity measured: "IC50"
  endpoint value: 21.3
- compound: "CC1CCc2ccccc2N1S(=O)(=O)c1ccc(Br)cc1 (configuration not stated)"
  system tested: "Trypanosoma cruzi"
  quantity measured: "IC50"
  endpoint value: 13.8

====

Test system: Trypanosoma brucei rhodesiense
assay method text: Antitrypanosomal activity against Trypanosoma brucei rhodesiense infected in rat L6 cells
Type: functional, organism-based
IC50 values by entry

- compound: "CC1CCc2ccccc2N1S(=O)(=O)c1ccc(Cl)cc1 (configuration not stated)"
  unit descriptor: "µM"
  IC50: 43.5
- compound: "CC1CCc2ccccc2N1S(=O)(=O)c1ccccc1 (configuration not stated)"
  unit descriptor: "µM"
  IC50: 52.9
- compound: "Nc1nc(N)nc(Nc2ccc([As]3SCC(CO)S3)cc2)n1 (configuration not stated) [MELARSOPROL]"
  unit descriptor: "µM"
  IC50: 0.008
- compound: "COc1ccc(S(=O)(=O)N2c3ccccc3CCC2C)cc1 (configuration not stated)"
  unit descriptor: "µM"
  IC50: 43.9
- compound: "CC1CCc2ccccc2N1S(=O)(=O)c1ccc(Br)cc1 (configuration not stated)"
  unit descriptor: "µM"
  IC50: 40.1
- compound: "CC(=O)Nc1ccc(S(=O)(=O)N2c3ccccc3CCC2C)cc1 (configuration not stated)"
  unit descriptor: "µM"
  IC50: 49.8
- compound: "CC1CCc2ccccc2N1S(=O)(=O)c1cccc([N+](=O)[O-])c1 (configuration not stated)"
  unit descriptor: "µM"
  IC50: 33.1
- compound: "CC1CCc2ccccc2N1S(=O)(=O)c1ccc([N+](=O)[O-])cc1 (configuration not stated)"
  unit descriptor: "µM"
  IC50: 153
- compound: "CC1CCc2ccccc2N1 (configuration not stated)"
  unit descriptor: "µM"
  IC50: 87.2
- compound: "Cc1ccc(S(=O)(=O)N2c3ccccc3CCC2C)cc1 (configuration not stated)"
  unit descriptor: "µM"
  IC50: 44
- compound: "CC1CCc2ccccc2N1S(=O)(=O)c1ccc(N)cc1 (configuration not stated)"
  unit descriptor: "µM"
  IC50: 37.2
- compound: "CC1CCc2ccccc2N1S(=O)(=O)c1ccc(F)cc1 (configuration not stated)"
  unit descriptor: "µM"
  IC50: 125

====

assay method text: Selectivity index, ratio of IC50 for rat L6 cells to IC50 for Trypanosoma cruzi infected in rat L6 cells
Format: toxicity, cell-based
applied conditions: read-out: Ratio IC50

- compound: "CC1CCc2ccccc2N1 (stereo unspecified)"
  selectivity ratio: 1.32
- compound: "CC1CCc2ccccc2N1S(=O)(=O)c1ccc(Br)cc1 (stereo unspecified)"
  selectivity ratio: 0.53
- compound: "CC(=O)Nc1ccc(S(=O)(=O)N2c3ccccc3CCC2C)cc1 (stereo unspecified)"
  selectivity ratio: 2.42
- compound: "CC1CCc2ccccc2N1S(=O)(=O)c1ccc(Cl)cc1 (stereo unspecified)"
  selectivity ratio: 1.28
- compound: "COc1ccc(S(=O)(=O)N2c3ccccc3CCC2C)cc1 (stereo unspecified)"
  selectivity ratio: 0.37
- compound: "CC1CCc2ccccc2N1S(=O)(=O)c1ccc([N+](=O)[O-])cc1 (stereo unspecified)"
  selectivity ratio: 21.7

====

Measured selectivity ratio of individual entries
assay method text: Selectivity index, ratio of IC50 for rat L6 cells to IC50 for chloroquine and pyrimethamine-resistant Plasmodium falciparum K1 infected in rat L6 cells
Type: toxicity, cell-based
applied conditions: read-out: Ratio IC50

- compound: "CC1CCc2ccccc2N1S(=O)(=O)c1ccccc1 (stereo unspecified)"
  op: "="
  selectivity ratio: 5.28
- compound: "CC1CCc2ccccc2N1 (stereo unspecified)"
  op: "<"
  selectivity ratio: 7.32
- compound: "CC1CCc2ccccc2N1S(=O)(=O)c1ccc(N)cc1 (stereo unspecified)"
  op: "<"
  selectivity ratio: 2.13
- compound: "CC(=O)Nc1ccc(S(=O)(=O)N2c3ccccc3CCC2C)cc1 (stereo unspecified)"
  op: "<"
  selectivity ratio: 3.58
- compound: "CC1CCc2ccccc2N1S(=O)(=O)c1ccc(F)cc1 (stereo unspecified)"
  op: "="
  selectivity ratio: 5.58
- compound: "COc1ccc(S(=O)(=O)N2c3ccccc3CCC2C)cc1 (stereo unspecified)"
  op: "="
  selectivity ratio: 0.5
- compound: "CC1CCc2ccccc2N1S(=O)(=O)c1ccc(Cl)cc1 (stereo unspecified)"
  op: "="
  selectivity ratio: 2.43
- compound: "Cc1ccc(S(=O)(=O)N2c3ccccc3CCC2C)cc1 (stereo unspecified)"
  op: "="
  selectivity ratio: 0.44
- compound: "CC1CCc2ccccc2N1S(=O)(=O)c1ccc(Br)cc1 (stereo unspecified)"
  op: "="
  selectivity ratio: 1.1
- compound: "CC1CCc2ccccc2N1S(=O)(=O)c1cccc([N+](=O)[O-])c1 (stereo unspecified)"
  op: "="
  selectivity ratio: 18.1
- compound: "CC1CCc2ccccc2N1S(=O)(=O)c1ccc([N+](=O)[O-])cc1 (stereo unspecified)"
  op: "="
  selectivity ratio: 30

====

assay method text: Selectivity index, ratio of IC50 for rat L6 cells to IC50 for Trypanosoma cruzi infected in rat L6 cells
Assay type: toxicity, cell-based
applied conditions: read-out: Ratio IC50

- compound: "CC1CCc2ccccc2N1S(=O)(=O)c1ccc(F)cc1 (stereo not given)"
  selectivity ratio: 0.3
- compound: "CC1CCc2ccccc2N1S(=O)(=O)c1cccc([N+](=O)[O-])c1 (stereo not given)"
  selectivity ratio: 5.85
- compound: "CC1CCc2ccccc2N1S(=O)(=O)c1ccccc1 (stereo not given)"
  selectivity ratio: 3.29
- compound: "Cc1ccc(S(=O)(=O)N2c3ccccc3CCC2C)cc1 (stereo not given)"
  selectivity ratio: 0.29
- compound: "CC1CCc2ccccc2N1S(=O)(=O)c1ccc(N)cc1 (stereo not given)"
  selectivity ratio: 1.78
